Target: human Werner helicase (WRN-BV08, Uniprot Q14191, amino acids 517-1235 with L1074F point mutation) (Homo sapiens, UniProt Q14191, L1074F)
Construct: Uniprot Q14191, amino acids 517-1235 with L1074F point mutation; TEV-cleavable 8×His (C, cleaved yes); made in house; host or cells: Sf9 insect cells (baculovirus)
Sequence (Q14191 with tags, fused parts or gaps L1074F limits assumed): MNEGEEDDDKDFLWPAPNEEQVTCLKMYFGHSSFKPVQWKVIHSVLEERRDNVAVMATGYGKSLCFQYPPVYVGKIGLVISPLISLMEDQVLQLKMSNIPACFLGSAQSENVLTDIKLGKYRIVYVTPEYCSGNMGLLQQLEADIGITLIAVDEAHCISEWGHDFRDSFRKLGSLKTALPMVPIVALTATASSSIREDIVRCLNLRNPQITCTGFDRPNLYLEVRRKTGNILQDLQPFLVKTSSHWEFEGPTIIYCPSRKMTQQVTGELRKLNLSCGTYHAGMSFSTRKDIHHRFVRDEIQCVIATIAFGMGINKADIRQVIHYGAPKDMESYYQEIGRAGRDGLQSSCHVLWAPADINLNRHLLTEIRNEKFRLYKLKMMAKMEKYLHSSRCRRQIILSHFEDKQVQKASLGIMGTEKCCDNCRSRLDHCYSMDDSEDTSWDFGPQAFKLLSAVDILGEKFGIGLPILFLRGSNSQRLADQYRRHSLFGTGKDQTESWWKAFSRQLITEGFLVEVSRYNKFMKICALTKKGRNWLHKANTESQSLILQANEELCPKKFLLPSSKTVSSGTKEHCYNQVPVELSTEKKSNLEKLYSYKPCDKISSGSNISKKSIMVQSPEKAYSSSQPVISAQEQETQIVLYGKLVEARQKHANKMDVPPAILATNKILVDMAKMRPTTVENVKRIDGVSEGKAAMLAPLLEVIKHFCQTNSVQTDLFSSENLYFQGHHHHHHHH
Assay: WRN (BV08) ADP-Glo Assay
Format: biochemical
Details: 0.15 nM WRN, 5 μM ATP, 0.1 nM DNA duplex, 15 min preincubation, 60 min at 25° C., pH 7.5, 1% DMSO; read-out: ADP-Glo_hWRN_IC50
Source text: Example 2: WRN (BV08) ADP-Glo Assay Protocol Bovine skin gelatin (BSG), dimethyl sulfoxide (DMSO), Pluronic F-127 and Tris(2-carboxyethyl)phosphine hydrochloride solution (TCEP) were purchased from Sigma-Aldrich at the highest level of purity possible. […] The reaction was stopped by the addition of the ADP-Glo Kit components (Promega) as directed and the relative luminescence units (RLU) were read on an Envision 2104 (Perkin Elmer). […]
pIC50: −log10 of the molar value.
The molecules listed here are annotated with their pIC50.

MOLECULE	pIC50
CN(C)C(=O)C(C(=O)N(Cc1ccnc(C(C)(C)O)c1)C1C=CS(=O)(=O)C1)c1ccc(-c2ccc(F)cc2)cc1F (single isomer, unassigned) [I-12]	> 6.30
O=C(Cc1ccc(-n2cccc2)cc1)N(Cc1ccnc(Cl)c1)C1C=CS(=O)(=O)C1 (stereo not shown)	5.30 to 6.30
CC(C)(O)c1csc(CN(C(=O)Cc2ccc(S(F)(F)(F)(F)F)cc2)C2C=CS(=O)(=O)C2)n1 (single isomer, unassigned) [I-708]	5.00 to 5.30
COc1cc(CN(C(=O)C2Cc3cc(-c4ccc(F)cc4)ccc3O2)C2C=CS(=O)(=O)C2)ccn1 (stereo not shown)	< 4.30

* * *

Molecular target: human Werner helicase (WRN-BV08, Uniprot Q14191, amino acids 517-1235 with L1074F point mutation) (Homo sapiens, UniProt Q14191, L1074F)
Construct: Uniprot Q14191, amino acids 517-1235 with L1074F point mutation; TEV-cleavable 8×His (C, cleaved yes); made in house; host or cells: Sf9 insect cells (baculovirus)
Test: WRN (BV08) ADP-Glo Assay
Format: biochemical
Conditions: 0.15 nM WRN, 5 μM ATP, 0.1 nM DNA duplex, 15 min preincubation, 60 min at 25° C., pH 7.5, 1% DMSO; read-out: ADP-Glo_hWRN_IC50
pIC50: −log10 of the molar value.

COMPOUND	pIC50
O=C(Cn1cc(Cl)cn1)N(Cc1ccncc1)C1C=CS(=O)(=O)C1 (stereo not shown)	< 4.30
O=C(Cc1cccc(-n2cccc2)c1)N(Cc1ccncc1)C1C=CS(=O)(=O)C1 (stereo not shown)	< 4.30
O=C(Cn1nc(C(F)F)c2c1CCCC2)N(Cc1ccncc1)C1C=CS(=O)(=O)C1 (stereo not shown)	< 4.30
CC(C)(O)c1cc(CN(C(=O)Cn2cc3cc(C(F)(F)F)ccc3n2)C2C=CS(=O)(=O)C2)ccn1 (single isomer, unassigned)	> 6.30
O=C(Cc1ncc(-n2cccc2)s1)N(Cc1ccncc1)C1C=CS(=O)(=O)C1 (stereo not shown)	5.00 to 5.30
COc1cc(CN(C(=O)C(c2ccc(-c3ccc(F)c(F)c3)cc2F)n2cc(C#N)cn2)[C@@H]2C=CS(=O)(=O)C2)ccn1 (stereo partly shown) [I-706]	5.30 to 6.30
COc1ccc2c(CC(=O)N(Cc3ccncc3)C3C=CS(=O)(=O)C3)c[nH]c2c1 (stereo not shown)	< 4.30
COc1cc(CN(C(=O)Cn2cc3cc(C(F)(F)C(F)(F)F)ccc3n2)[C@@H]2C=CS(=O)(=O)C2)ccn1	> 6.30
COc1cc(CN(C(=O)CCc2c[nH]c3cc(Cl)ccc23)C2C=CS(=O)(=O)C2)ccn1 (stereo not shown)	5.00 to 5.30
O=C(C1CCc2cc(Cl)ccc2O1)N(Cc1ccncc1)C1C=CS(=O)(=O)C1 (stereo not shown)	< 4.30
CC(C)(O)c1csc(CN(C(=O)Cc2ccc(S(F)(F)(F)(F)F)cc2)C2C=CS(=O)(=O)C2)n1 (stereo not shown) [I-637]	4.30 to 5.00
O=C(Cn1ccc(-c2ccccc2)n1)N(Cc1ccncc1)C1C=CS(=O)(=O)C1 (stereo not shown)	< 4.30
O=C(c1ccncc1)N(CCc1ccc(-n2cccc2)cc1)C1C=CS(=O)(=O)C1 (stereo not shown)	< 4.30
CC(C)(O)c1cc(CN(C(=O)C(OC(F)F)c2ccc(-c3ccc(F)c(F)c3)cc2F)[C@@H]2C=CS(=O)(=O)C2)ccn1 (single isomer, unassigned)	> 6.30
O=C(Cc1ccc(-n2cccc2)cc1)N(Cc1ccncc1)C1C=CS(=O)(=O)C1 (single isomer, unassigned) [I-490]	< 4.30
O=C(Cc1ccc(-n2ccc3ccccc32)cc1)N(Cc1ccncc1)C1C=CS(=O)(=O)C1 (stereo not shown)	4.30 to 5.00

* * *

We begin with a simple list: items and their reported IC50.
Target: human Werner helicase (WRN-BV08, Uniprot Q14191, amino acids 517-1235 with L1074F point mutation) (Homo sapiens, UniProt Q14191, L1074F)
Construct: Uniprot Q14191, amino acids 517-1235 with L1074F point mutation; TEV-cleavable 8×His (C, cleaved yes); made in house; host or cells: Sf9 insect cells (baculovirus)
Test: WRN (BV08) ADP-Glo Assay
Format: biochemical
Conditions: 0.15 nM WRN, 5 μM ATP, 0.1 nM DNA duplex, 15 min preincubation, 60 min at 25° C., pH 7.5, 1% DMSO; read-out: ADP-Glo_hWRN_IC50

MOLECULE	IC50
O=C(Cc1ccc(-n2cccc2)cc1)N(Cc1ccccc1CO)C1C=CS(=O)(=O)C1 (stereo not shown) [I-360]	10 to 50 µM
O=C([C@H]1[C@@H]2CC(F)(F)C[C@@H]21)N(Cc1ccncc1)C1C=CS(=O)(=O)C1 (stereo partly shown) [I-617]	> 50 µM
COc1cc(CN(C(=O)Cn2cc(-c3ccc(F)cc3)cn2)C2C=CS(=O)(=O)C2)ccn1 (stereo not shown) [I-68]	< 0.5 µM
COc1cc(CN(C(=O)C2CNc3cc(-c4ccc(F)cc4)ccc32)C2C=CS(=O)(=O)C2)ccn1 (stereo not shown) [I-121]	0.5 to 5 µM
O=C(Cc1ccc(-c2ccc(F)cc2)cc1F)N(Cc1ccncc1)C1C=CS(=O)(=O)C1 (stereo not shown) [I-115]	0.5 to 5 µM
CC(C)(O)c1cc(CN(C(=O)Cn2ccc(-c3ccc(F)c(F)c3)cc2=O)[C@@H]2C=CS(=O)(=O)C2)ccn1 [I-13]	< 0.5 µM
O=C(Cn1cc(-c2ccc(F)c(F)c2)cn1)N(Cc1nc(C2CC2(F)F)cs1)C1C=CS(=O)(=O)C1 (stereo not shown) [I-718]	< 0.5 µM
O=C(Cc1ccc(-n2cccc2)cc1F)N(Cc1ccncc1)C1C=CS(=O)(=O)C1 (single isomer, unassigned) [I-127]	0.5 to 5 µM
O=C(Cc1ccc(C2CCCC2O)cc1)N(Cc1ccncc1)C1C=CS(=O)(=O)C1 (stereo not shown) [I-449]	> 50 µM
COc1cc(CN(C(=O)Cc2ccc(-n3ccccc3=O)cc2F)C2C=CS(=O)(=O)C2)ccn1 (stereo not shown) [I-381]	> 50 µM
Cc1cccn1-c1ccc2c(c1)CC(C(=O)N(Cc1ccnc(C(C)(C)O)c1)[C@@H]1C=CS(=O)(=O)C1)O2 (single isomer, unassigned) [I-607]	< 0.5 µM
O=C(Cn1cc(-c2ccc(F)c(F)c2)cn1)N(Cc1nc(C2CC2)cs1)C1C=CS(=O)(=O)C1 (stereo not shown) [I-599]	< 0.5 µM
CCC(C)c1ccc(CC(=O)N(Cc2ccncc2)C2C=CS(=O)(=O)C2)cc1 (stereo not shown) [I-216]	5 to 10 µM
COC(C(=O)N(Cc1ccccc1)C1C=CS(=O)(=O)C1)c1ccc(-n2cccc2)cc1 (stereo not shown) [I-337]	10 to 50 µM
CN1CCc2c(ccn2-c2ccc(CC(=O)N(Cc3ccccc3)C3C=CS(=O)(=O)C3)cc2)C1 (stereo not shown) [I-456]	> 50 µM
O=C(NC(Cc1c[nH]c2ccccc12)C(=O)N(Cc1ccncc1)C1C=CS(=O)(=O)C1)c1ccc(F)cc1 (single isomer, unassigned) [I-561]	> 50 µM
CC(C)(O)c1cc(CN(C(=O)Cc2ccc(C3(C(F)(F)F)CC3)cc2)C2C=CS(=O)(=O)C2)ccn1 (single isomer, unassigned) [I-663]	0.5 to 5 µM
CN(C)C(=O)CC(C(=O)N(Cc1ccnc(C(C)(C)O)c1)C1C=CS(=O)(=O)C1)c1ccc(S(F)(F)(F)(F)F)cc1 (stereo not shown) [I-460]	> 50 µM
O=C(Cc1ccc(C2CC(F)(F)C2)cc1)N(Cc1ccncc1)C1C=CS(=O)(=O)C1 (stereo not shown) [I-359]	10 to 50 µM
Cc1cccn1-c1ccc(CC(=O)N(Cc2ccn(C)c(=O)c2)C2C=CS(=O)(=O)C2)c(F)c1 (stereo not shown) [I-173]	0.5 to 5 µM
COCC(C(=O)N(Cc1ccnc(C(C)(C)O)c1)C1C=CS(=O)(=O)C1)c1ccc(-c2ccc(F)c(F)c2)cc1F (stereo not shown) [I-195]	0.5 to 5 µM
COc1cc(CN(C(=O)C2Cc3cc(C(F)(F)F)ccc3O2)[C@@H]2C=CS(=O)(=O)C2)ccn1 (stereo partly shown) [I-114]	0.5 to 5 µM
O=C(Cc1cnn(Cc2ccccc2)c1)N(Cc1ccncc1)C1C=CS(=O)(=O)C1 (stereo not shown) [I-544]	> 50 µM
O=C(Cc1ccc(-n2cccc2)cc1)N(Cc1ccccc1F)C1C=CS(=O)(=O)C1 (stereo not shown) [I-257]	5 to 10 µM
C#CCCCC(=O)N1CCN(c2ccc(CN(C(=O)Cc3ccc(-n4cccc4)cc3F)C3C=CS(=O)(=O)C3)cc2)CC1 (stereo not shown) [I-213]	0.5 to 5 µM
C[Si](C)(C)c1ccc(CC(=O)N(Cc2ccncc2)C2C=CS(=O)(=O)C2)cc1 (stereo not shown) [I-587]	10 to 50 µM
O=C(Cc1ccc(-n2cccc2)c(F)c1)N(Cc1ccncc1)C1C=CS(=O)(=O)C1 (stereo not shown) [I-327]	10 to 50 µM
O=C(Cc1ccc(-n2cccc2)cc1)N(Cc1nc(C(F)(F)F)cs1)C1C=CS(=O)(=O)C1 (stereo not shown) [I-145]	0.5 to 5 µM
COc1cc(CN(C(=O)C(OCCC#N)c2ccc(-c3ccc(F)c(F)c3)cc2F)[C@@H]2C=CS(=O)(=O)C2)ccn1 (single isomer, unassigned) [I-735]	0.5 to 5 µM
CN(C)c1cc(CN(C(=O)Cc2ccc(-c3ccc(F)c(F)c3)cc2F)C2C=CS(=O)(=O)C2)ccn1 (stereo not shown) [I-99]	0.5 to 5 µM
O=C(Cc1ccc2cc[nH]c2c1)N(Cc1ccncc1)C1C=CS(=O)(=O)C1 (stereo not shown) [I-506]	> 50 µM
